system: MDA-MB-231; assay: Cytotoxicity against human MDA-MB-231 cells assessed as [3H]thymidine incorporation after 72 hrs by microplate scintillation counter; format: functional, cell-based
quantity: IC50 (nM)
Please state the figure in nM; there is no need to write the unit.

Qu. Quick check: IC50 of `COc1ccc(/C=C\c2cc(OC)c(OC)c(OC)c2)cc1O` ?
Ans. 6
